assayed.target: T1, HLA-DP4 (DPB1*0401) (human), P20036
T1 chain 1: not shown
T1 chain 2: not shown
experiment.description: competition ELISA, tracer Oxy 271-287
pIC50: −log10 of the molar value.

>  <binder>
ALWNLHGQALFLGIVL (modifications not checked) [A16L]

>  <pIC50>
5.93

$$$$
